Reference source for all entries: ChEMBL document CHEMBL1134914

target: Caspase-8 (Homo sapiens); test: Inhibitory concentration against caspase-8
Sequence (Q14790 217-374 limits assumed): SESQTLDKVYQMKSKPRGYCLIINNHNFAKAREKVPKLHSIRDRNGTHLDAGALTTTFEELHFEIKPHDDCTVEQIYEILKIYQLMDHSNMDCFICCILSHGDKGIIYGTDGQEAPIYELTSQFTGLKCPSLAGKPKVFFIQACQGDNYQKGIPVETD
Sequence (Q14790 385-479 limits assumed): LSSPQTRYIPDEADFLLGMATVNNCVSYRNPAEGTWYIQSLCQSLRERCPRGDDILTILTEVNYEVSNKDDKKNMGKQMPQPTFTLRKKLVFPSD
MEASURED_PROPERTY: IC50 (µM)

Previously resolved entries follow.
q: Find IC50 (Caspase-8 (Homo sapiens)) for the entry CC(C)C[C@H](NC(=O)COc1ccc(C23CC4CC(CC(C4)C2)C3)cc1)C(=O)N[C@H]1CC(=O)OC1O (some centres undefined)
a: 4.35

q: Find IC50 (Caspase-8 (Homo sapiens)) for the entry CC(C)C[C@H](NC(=O)COc1ccc2c(c1)CCCC2)C(=O)N[C@H]1CC(=O)OC1O (some centres undefined)
a: 4.95

(A) CC(C)C[C@H](NC(=O)COc1ccc(C2CCCC2)cc1)C(=O)N[C@H]1CC(=O)OC1O (some centres undefined)
(B) CC(C)C[C@H](NC(=O)COc1cccc2ncccc12)C(=O)N[C@H]1CC(=O)OC1O (some centres undefined)
(C) CC(C)C[C@H](NC(=O)C(C)Oc1cccc2ccccc12)C(=O)N[C@H]1CC(=O)OC1O (some centres undefined)
(D) CC(C)C[C@H](NC(=O)Cc1ccc2ccccc2c1)C(=O)N[C@H]1CC(=O)OC1O (some centres undefined)
q: Thanks in advance: please rank these 4 entries by IC50, highest to lowest. Answer format: list of labels, ordered as asked.
a: D, A, B, C
